# System: B6C3F1 mice, ip Sarcoma M5076, median survival T/C
# test.name: NCI In Vivo Anticancer Drug Screen. Data for tumor model Sarcoma M5076 (intraperitoneal) in B6C3F1 mice
# condition.summary: endpoint: median survival time; dose: 50.0 mg/kg/injection; schedule: Q04DX004 (ip); vehicle: saline with Tween-80; higher = longer survival
Toxic doses and inconclusive results are not listed.
Each record here notes measured T/C.

Here are 2 molecules together with their reported answers.
[
  {
    "smiles.text": "CCOC(=O)c1ccc2c(=O)[nH]nc(CO)c2c1",
    "experimental.endpoint": "T/C",
    "test.value": "99 % of control"
  },
  {
    "smiles.text": "COc1cc(C(C)(C)C)cc(OC)c1C(O)(c1c(OC)cc(C(C)(C)C)cc1OC)c1c(OC)cc(C(C)(C)C)cc1OC",
    "experimental.endpoint": "T/C",
    "test.value": "116 % of control"
  }
]

Exam item: Bench note: what T/C did `c1ccc(P(CCNCCP(c2ccccc2)c2ccccc2)c2ccccc2)cc1` show?
Marked response: 92 % of control
